These entries and their values trace back to ChEMBL document CHEMBL2169783.

test: Cmax in fasted cynomolgus monkey at 2.8 mg/kg, po; format: ADME, organism-based, Macaca fascicularis; design: dose 2.8 mg/kg, route oral; conditions: in vivo
property label: Cmax (ng/mL)

INSERT INTO assay_data (smiles_entry, units_symbol, numeric_value) VALUES
  ('CC(C)c1ccc(Cc2ccc3c(c2)[C@]2(OC3)O[C@H](CO)[C@@H](O)[C@H](O)[C@H]2O)cc1', 'ng/mL', 530);

###

assay: Cmax in fasted cynomolgus monkey at 1.7 mg/kg, po; type: ADME, organism-based, Macaca fascicularis; set-up: dose 1.7 mg/kg, route oral; settings: in vivo
property label: Cmax (ng/mL)

INSERT INTO measurements (molecule, property_label, numeric_value) VALUES
  ('CCc1ccc(Cc2ccc3c(c2)[C@]2(OC3)O[C@H](CO)[C@@H](O)[C@H](O)[C@H]2O)cc1 [TOFOGLIFLOZIN ANHYDROUS]', 'Cmax', 930);
